parameter-measured: logP
Answer as a number with no unit attached.

# input molecule: CCCCCCn1c(=O)c2c(ncn2C)n(C)c1=O ; wanted: its logP
1.2

###

parameter-measured: logP
Answer as a number with no unit attached.

# input compound: O=C(O)c1cc(-c2ccc(F)cc2F)ccc1O ; wanted: its logP
3.95

###

# test-method-notes: method code SF-HPLC, from PMID: 9554875
# experimental-conditions: pH 6.8
parameter-measured: logD
Answer as a number with no unit attached.

# compound, assay-value
records = [
    ("COc1cccc2c1OP(=O)(OC[C@@H]1C=C[C@H](n3cc(C)c(=O)[nH]c3=O)O1)OC2 (stereo partly drawn)", 0.15),
    ("Cc1cn(C2C=CC(COP3(=O)OCc4cc(Cl)ccc4O3)O2)c(=O)[nH]c1=O (stereo not drawn)", 0.88),
]

# input compound: Cc1cn(C2C=CC(COP3(=O)OCc4cc([N+](=O)[O-])ccc4O3)O2)c(=O)[nH]c1=O (stereo not drawn) ; wanted: its logD
0.18

###

# test-method-notes: method code SF-AS, from DOI: 10.1016/s0960-894x(99)00527-2, PMID: 10571171
# experimental-conditions: pH 7.0
parameter-measured: logD
Answer as a number with no unit attached.

# input compound: O=C(NCCN(CCNC(=O)c1ccc2cccnc2c1O)CCNC(=O)c1ccc2cccnc2c1O)c1ccc2cccnc2c1O ; wanted: its logD
1

###

# test-method-notes: method code SF, from DOI: 10.1248/yakushi1947.96.10_1169, PMID: 1033993
# experimental-conditions: pH 0.7
parameter-measured: logD
Answer as a number with no unit attached.

Some solved entries appear below for comparison.
# compound, assay-value
data = [
    ("CCC1(C2CCCCC2)C(=O)NC(=O)N(C)C1=O (stereo not drawn)", 2),
    ("CCC1C(=O)NC(=O)NC1=O", -0.35),
]

Would you kindly look at the next entry?
# input compound: C=CCC1(CC)C(=O)NC(=O)N(C)C1=O (stereo not drawn) ; wanted: its logD
1.35

###

# test-method-notes: method code SF-RC, from DOI: 10.1021/jm8013376, PMID: 19216563
# experimental-conditions: pH 7.4
parameter-measured: logD
Answer as a number with no unit attached.

# input molecule: Oc1ccc2nc(-c3ccccc3)sc2c1 ; wanted: its logD
2.48

###

parameter-measured: logP

# input compound: CCC(CC)C(=O)NC(N)=O ; wanted: its logP
0.91

###

# test-method-notes: method code SF-RC, from DOI: 10.1016/j.nucmedbio.2007.07.017, PMID: 17998101
# experimental-conditions: pH 7.4
parameter-measured: logD
Answer as a number with no unit attached.

# input compound: FCCON=C1C=C(C#Cc2ccccn2)CCC1 ; wanted: its logD
2.1

###

Parameter logD: see the listing below.
# test-method-notes: method code SF-HPLC, from DOI: 10.1023/a:1015862319927, PMID: 2062808
# experimental-conditions: pH 7.4
Answer as a number with no unit attached.

# compound, logD
data = [
    ("O=c1[nH]c(=O)n([C@H]2C[C@H](O)[C@@H](CO)O2)cc1I", -0.95),
    ("CCC(=O)OCC1OC(n2cc(I)c(=O)[nH]c2=O)CC1O (stereo not drawn)", 0.68),
]

Would you kindly look at the next entry?
# input compound: O=C(OC[C@H]1O[C@@H](n2cc(I)c(=O)[nH]c2=O)C[C@@H]1O)c1ccccc1 ; wanted: its logD
1.4

###

# test-method-notes: method code SF-RC, from DOI: 10.1023/a:1015846100305, PMID: 1788157
# experimental-conditions: pH 7.3
Residues, ends and D or L forms follow the SMILES beside them. *: point of attachment. NHtBu = CC(C)(C)N*
parameter-measured: logD
Answer as a number with no unit attached.

# compound, assay-value
measured = [
    ("CC(=O)N[C@@H](C)C(=O)N[C@@H](C)C(=O)N[C@@H](C)C(=O)NC(C)(C)C", -0.51),
    ("CC(=O)NC(C)C(=O)NC(Cc1c[nH]cn1)C(=O)NC(C)C(=O)NC(C)(C)C (stereo not drawn) (Ac-Ala-His-Ala-NHtBu; configuration not given here)", -0.48),
    ("CC(=O)N[C@@H](C)C(=O)N[C@@H](Cc1ccccc1)C(=O)N[C@@H](C)C(=O)NC(C)(C)C (Ac-Ala-Phe-Ala-NHtBu)", 1.01),
]

Would you kindly look at the next entry?
# input compound: CC(=O)NC(C)C(=O)N1CCCC1C(=O)NC(C)C(=O)NC(C)(C)C (stereo not drawn) (Ac-Ala-Pro-Ala-NHtBu; configuration not given here) ; wanted: its logD
-0.39

###

# test-method-notes: method code SF-AS, from DOI: 10.1016/0378-5173(80)90117-9
parameter-measured: logP
Answer as a number with no unit attached.

# smiles-record, logP
measured = [
    ("CCCCc1ccc(O)cc1", 3.65),
]

Would you kindly look at the next entry?
# input molecule: COc1ccc(O)cc1 ; wanted: its logP
1.57

###

# test-method-notes: method code SF-AS, from DOI: 10.1021/jm00069a002, PMID: 8355246
# experimental-conditions: pH 7.4
parameter-measured: logD
Answer as a number with no unit attached.

# input compound: Cc1c(O)c(=O)ccn1C(C)C ; wanted: its logD
0.05

###

Parameter logP: see the listing below.
Answer as a number with no unit attached.

# compound, logP
measured = [
    ("CC(C)N1CCOC(c2cccc(Cl)c2)C1 (configuration not stated)", 3.27),
]

# input compound: Cc1cccc(C2CNCCO2)c1 (configuration not stated) ; wanted: its logP
1.52

###

# test-method-notes: method code SF-HPLC, from DOI: 10.1016/j.bmc.2009.01.040, PMID: 19208447
# experimental-conditions: pH 7.0
parameter-measured: logD
Answer as a number with no unit attached.

# molecule, logD
rows = [
    ("CC(C(=O)OCC(O)C(O)C(O)C(O)CO)c1cccc(C(=O)c2ccccc2)c1 (configuration not stated)", 0.78),
]

# input molecule: CC(C(=O)OCC(O)C(O)C(O)C(O)C=O)c1cccc(C(=O)c2ccccc2)c1 (configuration not stated) ; wanted: its logD
1.26

###

# test-method-notes: method code SF-HPLC, from DOI: 10.1080/01483919108049396
# experimental-conditions: pH 7.0
Parameter logD: see the listing below.
Answer as a number with no unit attached.

# compound, assay-value
records = [
    ("O=C(Nc1ncnc2c1ncn2[C@H]1C[C@H](O)[C@@H](CO)O1)c1ccccc1", 0.22),
]

# input compound: O=C(Nc1ccn(C2OC(CO)C(O)C2O)c(=O)n1)c1ccccc1 (stereo not drawn) ; wanted: its logD
0.3

# input compound: O=C(Nc1ncnc2c1ncn2[C@@H]1O[C@H](CO)[C@@H](O)[C@H]1O)c1ccccc1 ; wanted: its logD
-0.1

###

# test-method-notes: method code SF, from DOI: 10.1248/cpb.18.708
# experimental-conditions: pH 6.4
parameter-measured: logD
Answer as a number with no unit attached.

# input molecule: Cc1cc(C)cc(NS(=O)(=O)c2ccc(N)cc2)c1 ; wanted: its logD
2.52

###

# test-method-notes: method code SF-AS, from DOI: 10.1007/s001289900104, PMID: 8661852
parameter-measured: logP
Answer as a number with no unit attached.

Some solved entries appear below for comparison.
# smiles-record, logP
rows = [
    ("Oc1cc(O)nc(-c2ncncn2)n1", 1.49),
    ("Clc1cc(-c2ncncn2)c(Cl)nn1", 0.84),
]

# input molecule: O=[N+]([O-])c1c(Cl)nc(-c2ncncn2)nc1Cl ; wanted: its logP
2.29

###

parameter-measured: logP
Answer as a number with no unit attached.

# smiles-record, logP
rows = [
    ("ClC(Cl)(Cl)Cl", 2.59),
]

Would you kindly look at the next entry?
# input compound: CCCC ; wanted: its logP
2.74

###

# test-method-notes: method code SF-HPLC, from DOI: 10.1002/jat.2550130210, PMID: 8486911
# experimental-conditions: pH 13.0
Parameter logD: see the listing below.
Answer as a number with no unit attached.

# smiles-record, logD
measured = [
    ("CCCCCCCCN", 3.3),
]

Would you kindly look at the next entry?
# input compound: CCCCCC(C)(C)N ; wanted: its logD
2.19

###

parameter-measured: logP
Answer as a number with no unit attached.

# input compound: O=C(OCc1ccccc1)c1ccc(O)cc1 ; wanted: its logP
3.56

###

Parameter logD: see the listing below.
# test-method-notes: method code SF-AS, from DOI: 10.1021/jm00085a014, PMID: 1560439
# experimental-conditions: pH 7.4

Some solved entries appear below for comparison.
# smiles-record, logD
records = [
    ("CCc1[nH]c(=O)[nH]c1C(=O)c1ccc(-n2ccnc2C)cc1", 0.85),
    ("CCc1[nH]c(=O)n(C(C)=O)c1C(=O)c1ccc(-n2ccnc2C)cc1", 1.42),
    ("CCC(=O)n1c(C(=O)c2ccc(-n3ccnc3C)cc2)c(CC)[nH]c1=O", 1.72),
]

Would you kindly look at the next entry?
# input compound: CCc1[nH]c(=O)n(C(=O)c2ccccc2)c1C(=O)c1ccc(-n2ccnc2C)cc1 ; wanted: its logD
1.96
